Molecular target: human 5-HT1A receptors (Homo sapiens, UniProt P08908)
Sequence (P08908 1-422): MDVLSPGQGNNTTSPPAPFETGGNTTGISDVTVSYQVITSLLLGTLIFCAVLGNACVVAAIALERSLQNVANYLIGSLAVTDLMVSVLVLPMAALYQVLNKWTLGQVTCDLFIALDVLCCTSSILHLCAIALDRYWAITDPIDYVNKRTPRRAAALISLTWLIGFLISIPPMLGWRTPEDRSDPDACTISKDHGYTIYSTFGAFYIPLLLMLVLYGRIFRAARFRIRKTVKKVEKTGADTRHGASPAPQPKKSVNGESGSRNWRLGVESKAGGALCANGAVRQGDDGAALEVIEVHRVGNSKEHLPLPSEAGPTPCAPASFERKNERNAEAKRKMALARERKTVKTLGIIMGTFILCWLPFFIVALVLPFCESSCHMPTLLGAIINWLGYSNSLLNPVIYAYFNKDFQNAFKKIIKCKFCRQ
Experiment: [3H] 8-OHDPAT displacement from 5-HT1A receptor in transfected CHO cells
outcome_measure: Ki (nM)
Note: unit nM is implicit; provide only the numeric part.

Sample answers from the record:
Given item `Cc1cc2c3c(ccc2o1)OC[C@H](CN1CC=C(c2c[nH]c4ccccc24)CC1)O3` , the value recorded as its Ki is 14.1

Given item C1=C(c2c[nH]c3ccccc23)CCN(CC2COc3ccc4c(c3O2)CCCO4)C1 (centres unmarked) , the value recorded as its Ki is 30.4

Given item Fc1ccc2[nH]cc(C3=CCN(CC4COc5ccc6c(c5O4)CCCO6)CC3)c2c1 (centres unmarked) , the value recorded as its Ki is 29.4

Given item C1=C(c2c[nH]c3ccccc23)CCN(CC2COc3ccc4occc4c3O2)C1 (centres unmarked) , the value recorded as its Ki is 19.6

Next:
Given item C1=C(c2c[nH]c3ccccc23)CCN(CC2COc3ccc4c(c3O2)CCO4)C1 (centres unmarked) , the value recorded as its Ki is 46

----------
target: cloned human 5-HT1A receptors (Homo sapiens); construct: expressed in transfected cells; assay: 35S-GTPγS binding assay, antagonist activity at 5-HT1A receptors; type: biochemical; details: reversal of standard agonist 8-OHDPAT, value in parentheses
outcome_measure: 5-HT1A Function Imax (maximum inhibitory effect)
# output: bare number, no unit

Given item C1=C(c2c[nH]c3ccccc23)CCN(CC2COc3ccc4c(c3O2)CCCO4)C1 (centres unmarked) , the value recorded as its 5-HT1A Function Imax (maximum inhibitory effect) is 100

Given item C1=C(c2c[nH]c3ccccc23)CCN(CC2COc3ccc4c(c3O2)CCO4)C1 (centres unmarked) , the value recorded as its 5-HT1A Function Imax (maximum inhibitory effect) is 66.0

Given item C1=C(c2c[nH]c3ccccc23)CCN(CC2COc3ccc4occc4c3O2)C1 (centres unmarked) , the value recorded as its 5-HT1A Function Imax (maximum inhibitory effect) is 61.0

Given item `Cc1cc2c3c(ccc2o1)OC[C@H](CN1CC=C(c2c[nH]c4ccccc24)CC1)O3` , the value recorded as its 5-HT1A Function Imax (maximum inhibitory effect) is 62.0

Given item Fc1ccc2[nH]cc(C3=CCN(CC4COc5ccc6c(c5O4)CCCO6)CC3)c2c1 (centres unmarked) , the value recorded as its 5-HT1A Function Imax (maximum inhibitory effect) is 100

----------
target: serotonin transporter (Rattus norvegicus, UniProt P31652); construct: displace ^3H-paroxetine from male rat frontal cortical membranes; from tissue; host or cells: male rat frontal cortex membranes; assay: 3H-paroxetine displacement from rat frontal cortical membranes (serotonin transporter affinity); assay type: binding; details: 3H-paroxetine, male rat frontal cortical membranes; read-out: 5-HT Transporter Affinity KI
Sequence (P31652 whole entry): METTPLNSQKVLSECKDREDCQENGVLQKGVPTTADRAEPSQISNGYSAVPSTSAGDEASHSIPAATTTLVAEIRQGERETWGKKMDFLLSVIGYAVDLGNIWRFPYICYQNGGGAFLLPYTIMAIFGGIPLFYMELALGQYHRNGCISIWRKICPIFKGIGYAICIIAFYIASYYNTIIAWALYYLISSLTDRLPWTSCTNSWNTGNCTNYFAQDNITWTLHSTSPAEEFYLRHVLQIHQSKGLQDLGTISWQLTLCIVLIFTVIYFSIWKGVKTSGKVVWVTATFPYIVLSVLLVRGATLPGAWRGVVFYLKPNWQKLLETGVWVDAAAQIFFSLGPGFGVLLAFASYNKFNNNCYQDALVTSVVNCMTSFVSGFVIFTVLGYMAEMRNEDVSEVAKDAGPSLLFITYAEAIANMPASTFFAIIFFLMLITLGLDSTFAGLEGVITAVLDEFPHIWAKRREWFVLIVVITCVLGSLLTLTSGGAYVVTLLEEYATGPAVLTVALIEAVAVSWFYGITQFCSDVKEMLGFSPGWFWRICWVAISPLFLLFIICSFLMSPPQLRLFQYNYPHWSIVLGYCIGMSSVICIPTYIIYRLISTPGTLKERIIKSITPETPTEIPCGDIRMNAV
Listing of entries alongside the reported Ki.
Note: unit nM is implicit; provide only the numeric part.

Given item C1=C(c2c[nH]c3ccccc23)CCN(CC2COc3ccc4occc4c3O2)C1 (centres unmarked) , the value recorded as its Ki is 115

Next:
Given item `Cc1cc2c3c(ccc2o1)OC[C@H](CN1CC=C(c2c[nH]c4ccccc24)CC1)O3` , the value recorded as its Ki is 185

----------
Listing of entries alongside the reported IC50.
Target: cloned human 5-HT1A receptors (Homo sapiens)
Sequence (P08908 1-422): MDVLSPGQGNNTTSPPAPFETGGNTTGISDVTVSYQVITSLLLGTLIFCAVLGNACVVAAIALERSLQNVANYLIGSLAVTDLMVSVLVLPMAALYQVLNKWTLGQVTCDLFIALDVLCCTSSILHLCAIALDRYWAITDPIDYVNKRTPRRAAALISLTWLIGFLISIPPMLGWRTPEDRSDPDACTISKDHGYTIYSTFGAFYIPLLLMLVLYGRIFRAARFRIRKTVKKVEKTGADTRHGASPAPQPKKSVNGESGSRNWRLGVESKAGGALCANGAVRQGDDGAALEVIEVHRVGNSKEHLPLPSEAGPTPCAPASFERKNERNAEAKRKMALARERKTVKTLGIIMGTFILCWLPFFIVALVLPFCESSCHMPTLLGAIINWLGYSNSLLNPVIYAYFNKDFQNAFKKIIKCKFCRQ
Note: unit nM is implicit; provide only the numeric part.

Given item C1=C(c2c[nH]c3ccccc23)CCN(CC2COc3ccc4occc4c3O2)C1 (centres unmarked) , the value recorded as its IC50 is 19

Given item `Cc1cc2c3c(ccc2o1)OC[C@H](CN1CC=C(c2c[nH]c4ccccc24)CC1)O3` , the value recorded as its IC50 is 241

Given item C1=C(c2c[nH]c3ccccc23)CCN(CC2COc3ccc4c(c3O2)CCO4)C1 (centres unmarked) , the value recorded as its IC50 is 264

Given item Fc1ccc2[nH]cc(C3=CCN(CC4COc5ccc6c(c5O4)CCCO6)CC3)c2c1 (centres unmarked) , the value recorded as its IC50 is 347

More entries:
Given item C1=C(c2c[nH]c3ccccc23)CCN(CC2COc3ccc4c(c3O2)CCCO4)C1 (centres unmarked) , the value recorded as its IC50 is 868

----------
Listing of entries alongside the reported pKi.
molecular target: serotonin transporter (Rattus norvegicus); construct: displace ^3H-paroxetine from male rat frontal cortical membranes; from tissue; host or cells: male rat frontal cortex membranes; assay: 3H-paroxetine displacement from rat frontal cortical membranes (serotonin transporter affinity); assay type: binding
# log scale: pKi equals minus log10 of the concentration in mol/L

Given item C1=C(c2c[nH]c3ccccc23)CCN(CC2COc3ccc4c(c3O2)CCCO4)C1 (stereo not drawn) [Example 4] , the value recorded as its pKi is 8.07

Given item C1=C(c2c[nH]c3ccccc23)CCN(CC2COc3ccc4c(c3O2)CCO4)C1 (stereo not drawn) [Example 2] , the value recorded as its pKi is 7.47

Given item Fc1ccc2[nH]cc(C3=CCN(CC4COc5ccc6c(c5O4)CCCO6)CC3)c2c1 (stereo not drawn) [Example 5] , the value recorded as its pKi is 8.00

----------
Listing of entries alongside the reported melting point.
Structures can show the parent of a compound that is named as a salt.

Sample answers from the record:
Given item C1=C(c2c[nH]c3ccccc23)CCN(CC2COc3ccc4c(c3O2)CCO4)C1 (centres unmarked) [Example 2] , the value recorded as its melting point is 207 to 209 °C

Given item C1=C(c2c[nH]c3ccccc23)CCN(CC2COc3ccc4occc4c3O2)C1 (centres unmarked) [Example 3] , the value recorded as its melting point is 208 to 209 °C

Given item Cc1cc2ccc3c(c2o1)OC(CN1CC=C(c2c[nH]c4ccccc24)CC1)CO3 (centres unmarked) [Example 1] , the value recorded as its melting point is 198 to 200 °C

Given item C1=C(c2c[nH]c3ccccc23)CCN(CC2COc3ccc4c(c3O2)CCCO4)C1 (centres unmarked) [Example 4] , the value recorded as its melting point is 186 to 187 °C

Next:
Given item Fc1ccc2[nH]cc(C3=CCN(CC4COc5ccc6c(c5O4)CCCO6)CC3)c2c1 (centres unmarked) (as salt: salt) [Example 5] , the value recorded as its melting point is 205 to 206 °C
